target_entity: T1, human PRLR on cells (human, UniProt P16471 25-622)
T1 construct: Endogenous on T47D cells, transfected in Baf3-hPRLR cells; also called hPRLR; T47D cells
T1 sequence: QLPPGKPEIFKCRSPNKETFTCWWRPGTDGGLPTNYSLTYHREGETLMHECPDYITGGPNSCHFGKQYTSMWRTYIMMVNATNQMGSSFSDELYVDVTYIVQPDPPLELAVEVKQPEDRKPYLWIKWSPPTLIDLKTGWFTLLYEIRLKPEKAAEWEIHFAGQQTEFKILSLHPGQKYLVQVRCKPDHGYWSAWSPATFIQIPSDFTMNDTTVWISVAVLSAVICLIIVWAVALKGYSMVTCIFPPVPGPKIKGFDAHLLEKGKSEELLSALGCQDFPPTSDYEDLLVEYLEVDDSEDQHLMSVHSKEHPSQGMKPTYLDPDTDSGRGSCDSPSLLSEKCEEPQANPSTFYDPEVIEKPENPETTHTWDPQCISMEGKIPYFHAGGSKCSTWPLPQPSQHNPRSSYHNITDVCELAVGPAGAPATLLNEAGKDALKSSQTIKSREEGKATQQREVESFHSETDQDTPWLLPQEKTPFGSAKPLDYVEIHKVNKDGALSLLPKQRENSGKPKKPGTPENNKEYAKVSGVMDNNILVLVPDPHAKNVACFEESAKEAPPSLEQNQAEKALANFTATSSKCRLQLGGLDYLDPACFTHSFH
method_notes: FACS T47D 10 ug/mL
assay_readout: FACS GeoMean-neg
Give your answer as a number; write no unit.

I have this binder here, Ab6 (antibody, V domains shown, murine monoclonal, isotype G1; also called murine Ab6) VH: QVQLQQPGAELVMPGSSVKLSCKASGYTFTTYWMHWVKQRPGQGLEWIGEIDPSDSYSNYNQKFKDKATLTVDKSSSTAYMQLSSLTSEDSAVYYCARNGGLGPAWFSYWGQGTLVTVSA VL: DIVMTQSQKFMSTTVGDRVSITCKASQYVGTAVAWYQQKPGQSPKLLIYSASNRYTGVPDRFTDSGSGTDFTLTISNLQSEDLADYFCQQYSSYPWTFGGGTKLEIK , and I need its recorded FACS GeoMean-neg. 1840

I have this binder here, Ab7 (antibody, V domains shown, murine monoclonal, isotype G1; also called murine Ab7) VH: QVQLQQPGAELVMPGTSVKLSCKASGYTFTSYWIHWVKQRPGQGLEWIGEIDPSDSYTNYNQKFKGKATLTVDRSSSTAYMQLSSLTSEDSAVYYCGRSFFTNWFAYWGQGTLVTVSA VL: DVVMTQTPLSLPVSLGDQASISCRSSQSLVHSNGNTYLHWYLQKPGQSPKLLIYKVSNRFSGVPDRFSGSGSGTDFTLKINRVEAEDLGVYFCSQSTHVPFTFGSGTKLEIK , and I need its recorded FACS GeoMean-neg. 2380

Source listed as patent US20170022281A1.
